# credit: ChEMBL document CHEMBL4814069

# Tested on: NHDF
# ASSAY_INFO: Cytotoxicity against human NHDF cells assessed as reduction in cell viability at 50 uM incubated for 72 hrs by Celltiter-Glo assay
# Format: cell-based
MEASURED_ATTRIBUTE: Activity

Form: compound = CCOC(=O)[C@H](Cc1ccccc1)NP(=O)(CN1CCCC(Cn2cnc3c(=O)[nH]c(N)nc32)C1)N[C@@H](Cc1ccccc1)C(=O)OCC (stereo partly drawn) ; Activity = Non-Toxic

// CCOC(=O)[C@H](Cc1ccccc1)NP(=O)(CN1CCCC(Cn2cnc3c(=O)[nH]cnc32)C1)N[C@@H](Cc1ccccc1)C(=O)OCC (stereo partly drawn) : Activity value = Non-Toxic

Record CCOC(=O)[C@H](Cc1ccccc1)NP(=O)(CCN1CCC[C@H]1Cn1cnc2c(=O)[nH]c(N)nc21)N[C@@H](Cc1ccccc1)C(=O)OCC , field Activity: Non-Toxic
